Where do the numbers come from? From patent US20080234233A1.

The entries below come with measured Inhibitory rate against NF-κB activation (%) values attached.
System: NF-κ B activation
ASSAY_NOTES: Inhibitory activity of NF-κB activation, luciferase reporter assay under TNF-α stimulation in HepG2
Type: cell-based, human
CONDITION_INFO: Drug concentration at 10 μg/mL; HepG2, TNF-α 40 ng/ml, 4 hours
Number only, in %; omit the unit.

Here is how some compounds turned out for Inhibitory rate against NF-κB activation (%).
- CHEMICAL_SMILES: "Cc1ccc(C(=O)Nc2cc(C(F)(F)F)cc(C(F)(F)F)c2)c(O)c1"
  MEAS_VALUE: 94.5
- CHEMICAL_SMILES: "Cc1cnc(NC(=O)c2cc(Br)ccc2O)s1"
  MEAS_VALUE: 69.7

IN: Specify measured Inhibitory rate against NF-κB activation (%) for `O=C(Nc1cc(C(F)(F)F)cc(C(F)(F)F)c1)c1cc(Cl)ccc1O` .
OUT: 97.5

IN: Specify measured Inhibitory rate against NF-κB activation (%) for `CC(C)(C)c1cc(NC(=O)c2cc([N+](=O)[O-])ccc2O)cc(C(C)(C)C)c1` .
OUT: 98.5

IN: Specify measured Inhibitory rate against NF-κB activation (%) for `O=C(Nc1nc(C(F)(F)F)c(Br)s1)c1cc(Br)ccc1O` .
OUT: 94.4

IN: Specify measured Inhibitory rate against NF-κB activation (%) for `N#Cc1ccc(Cl)cc1NC(=O)c1cc(Cl)ccc1O` .
OUT: 93.3

IN: Specify measured Inhibitory rate against NF-κB activation (%) for `COc1ccc(C(F)(F)F)cc1NC(=O)c1cc(Br)ccc1O` .
OUT: 93.4
